Every entry's value here was drawn from the RNAGym collection of RNA variant scans (doi:10.1073/pnas.2313332121).

B1: TPR t1 (parent)
chain: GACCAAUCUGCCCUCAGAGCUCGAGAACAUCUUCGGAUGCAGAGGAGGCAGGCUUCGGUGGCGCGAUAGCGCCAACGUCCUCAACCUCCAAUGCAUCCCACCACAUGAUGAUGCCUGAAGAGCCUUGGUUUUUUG

# Variants of: B1
# experimentDescription: polymerase ribozyme fitness, log enrichment relative to wild type (log ratio); higher = more active; in vitro selection for triplet polymerase activity
outcomeMeasure: polymerase ribozyme fitness (log ratio)
Please respond with just the number, no unit label.

Value of polymerase ribozyme fitness (log ratio) reported for the variant A2U C11G C28U G61A is -2.82

Given item C73U U106C , the value recorded as its polymerase ribozyme fitness (log ratio) is -0.194

The recorded polymerase ribozyme fitness (log ratio) for entry A18G G39U C53U G71A G120A equals -4.4

Record summary for C49U C62A C115A G122A : reported polymerase ribozyme fitness (log ratio) = -2.37

The variant listed as A6C C31G C34U G42U G93C A111C has a reported polymerase ribozyme fitness (log ratio) of -6.9

For record C12U G60A the listed polymerase ribozyme fitness (log ratio) is -0.607

Reported polymerase ribozyme fitness (log ratio) ( C82U C86A C97A ) = -4.95

Per the record, C49G C70G has polymerase ribozyme fitness (log ratio) of -4.79

Per the records, this variant ( C72G C97U G122A ) has polymerase ribozyme fitness (log ratio) equal to -1.57

Entry C8G C20U G52U C62A , polymerase ribozyme fitness (log ratio) reported as -2.37

polymerase ribozyme fitness (log ratio) measured on U59A G117U = -2.68

Reported polymerase ribozyme fitness (log ratio) of A74G G117U : -2.41

Measured polymerase ribozyme fitness (log ratio), C11G G35C G71U G110U : -7.04

Reported polymerase ribozyme fitness (log ratio) of A26G A43U G69U U112A : -0.179

Recorded polymerase ribozyme fitness (log ratio) (variant A6U A46U C115A ): -2.18

response.value for C13G G63C (field: polymerase ribozyme fitness (log ratio)) = -1.92

// sample G48U G57A G58A , its polymerase ribozyme fitness (log ratio) was -0.738

The reported polymerase ribozyme fitness (log ratio) of the variant C22A G57C C86U was -4.83

The measured polymerase ribozyme fitness (log ratio) associated with G51A A68G C123G reads -4.37

// sample A37U C88U , its polymerase ribozyme fitness (log ratio) was -0.319

The variant identified as A5U A37G C79G registered its polymerase ribozyme fitness (log ratio) at -1.97

Entry A6C C85G U92A U112G ; polymerase ribozyme fitness (log ratio) = -6.59
